B1: POU domain, class 4, transcription factor 1, residues 266 to 347; numbered along this chain, Q01851 (parent)
chain: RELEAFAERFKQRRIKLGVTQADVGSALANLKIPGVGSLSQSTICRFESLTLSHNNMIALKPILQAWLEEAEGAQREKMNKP

# Variants of: B1
# assay_notes: abundance fitness (aPCA) (normalised: wild type 0, dead -1); higher = more abundant; growth selection in yeast, the domain comes from the species named
# condition_summary: Homo sapiens
attribute_measured: abundance fitness

> print(dat)
    mutation.key  attribute.measured  result.number
 1          A22G   abundance fitness         -0.017
 2          S49I   abundance fitness         -0.573
 3          V19I   abundance fitness         -0.012
 4           E4L   abundance fitness         -0.134
 5          A66E   abundance fitness          0.012
 6          F10T   abundance fitness         -0.853
 7          V24E   abundance fitness         -0.679
 8          G18F   abundance fitness         -0.663
 9          A74P   abundance fitness          -0.05
10          A27T   abundance fitness         -0.069
11          N80D   abundance fitness         -0.007
12          K16T   abundance fitness         -0.032
13          G25T   abundance fitness         -0.012
14          I15R   abundance fitness         -0.037
15          L64M   abundance fitness         -0.323
16          I15Q   abundance fitness         -0.013
17          G73W   abundance fitness         -0.205
18          L31G   abundance fitness         -0.223
19          K16I   abundance fitness         -0.104
20          E77H   abundance fitness         -0.092
21          A22M   abundance fitness         -0.237
22          A66Y   abundance fitness         -0.104
